target: Proteasome subunit beta (Trypanosoma cruzi); assay: Trypanosoma cruzi proteasome chymotrypsin-like activity (TcProtChymo) assay.; format: functional; design: scale not given: in the data most compounds retested in dose-response had high values; settings: 9.37 µM
Property: Percent Effect; scope: individual compounds
Your answer should be a plain number; it is taken to be in %.

Reference set (8 entries):
COC(=O)N1CCCC(C(=O)NCc2cc3cccc(OC)c3o2)C1 (stereo not given) = -2.54
Cc1noc(C)c1C1CCCN1C(=O)CN1CC2(CCNCC2)OC1=O (stereo not given) = 6.9
Cc1ccc(OCC(=O)NCC(C)C)nc1 = 4.37
CCc1nc(C(=O)N2CCCC2)nn1-c1ccccc1Cl = 2.62
Cc1ccc(CNC2CCCc3c2cnn3C)s1 (stereo not given) = 17.1
CCCn1nc2c(cc1=O)CN(CCCS(N)(=O)=O)CC2 = 12.1
Cc1nc(C)n(CC2CCCN2CCc2cccs2)n1 (stereo not given) = 25.4
CCCc1cc(NC2CCc3ncnn3C2)n2ncnc2n1 (stereo not given) = 10.1

# get_value(readout='Percent Effect', item= COc1ncc(NC(=O)Nc2cc(C)ccc2OC)cn1 )
15.3

# get_value(readout='Percent Effect', item= O=C(CC1CCCC1)N1CCCC(c2n[nH]c3nccnc23)C1 (stereo not given) )
11.2

# get_value(readout='Percent Effect', item= Cc1ccsc1-c1nnc(C2CCN(Cc3ccc(F)cc3)CC2)o1 )
10.8

# get_value(readout='Percent Effect', item= Cc1cnn(CC(C)NCc2ccc(S(C)(=O)=O)cc2)c1 (stereo not given) )
12.3

# get_value(readout='Percent Effect', item= CCOc1cc(C)nc(N2CCN(C(=O)c3ccc[nH]3)CC2)n1 )
3.23

# get_value(readout='Percent Effect', item= CCN(CC1CCCO1)C(=O)Nc1ccc(F)cc1OC (stereo not given) )
4.5

# get_value(readout='Percent Effect', item= CN(C)c1cc(CNC(=O)c2ccc(F)cc2F)ccn1 )
8.11

# get_value(readout='Percent Effect', item= Cc1cnn(CC2CCCN2C(=O)CCc2nc3ccccc3[nH]2)c1 (stereo not given) )
-3.69

# get_value(readout='Percent Effect', item= CC(=O)N(Cc1ncc(C)o1)C1CCN(Cc2noc(C)n2)C1 (stereo not given) )
11.9

# get_value(readout='Percent Effect', item= CCn1cc(N2Cc3nc(N4CCN(C)CC4)ncc3C2=O)cn1 )
15.2

* * *

species: Homo sapiens; assay: To identify inhibition of the IFN signalling (Jak-Stat) pathway via expression of an eGFP reporter gene under the control of an IFN-stimulated response element (ISRE) containing MxA promoter.; format: functional; design: scale not given: direction of the effect not stated beside the values; conditions: 30 µM
test_readout: Percent Effect (%)
Your answer should be a plain number; it is taken to be in %.

# get_value(readout='Percent Effect', item= Cc1cccc2c1OCCC2NCc1c(C)nn(C)c1N(C)C (stereo unspecified) )
24.8

# get_value(readout='Percent Effect', item= O=C(CCOc1cccc(F)c1)N1CCCC(n2cncn2)C1 (stereo unspecified) )
2.52

# get_value(readout='Percent Effect', item= O=C(NCCN1CCCCCC1=O)c1n[nH]c(=O)c2ccccc12 )
27.5

* * *

target: Ubiquitin-activating enzyme e1, putative (Leishmania donovani (strain BPK282A1)) (UniProt E9BSI1); experiment: Leishmania donovani Ubiquitin Activating Enzyme (LdE1); assay type: functional; design: scale not given: direction of the effect not stated beside the values; conditions: 30 µM
Sequence (E9BSI1 as listed by the source): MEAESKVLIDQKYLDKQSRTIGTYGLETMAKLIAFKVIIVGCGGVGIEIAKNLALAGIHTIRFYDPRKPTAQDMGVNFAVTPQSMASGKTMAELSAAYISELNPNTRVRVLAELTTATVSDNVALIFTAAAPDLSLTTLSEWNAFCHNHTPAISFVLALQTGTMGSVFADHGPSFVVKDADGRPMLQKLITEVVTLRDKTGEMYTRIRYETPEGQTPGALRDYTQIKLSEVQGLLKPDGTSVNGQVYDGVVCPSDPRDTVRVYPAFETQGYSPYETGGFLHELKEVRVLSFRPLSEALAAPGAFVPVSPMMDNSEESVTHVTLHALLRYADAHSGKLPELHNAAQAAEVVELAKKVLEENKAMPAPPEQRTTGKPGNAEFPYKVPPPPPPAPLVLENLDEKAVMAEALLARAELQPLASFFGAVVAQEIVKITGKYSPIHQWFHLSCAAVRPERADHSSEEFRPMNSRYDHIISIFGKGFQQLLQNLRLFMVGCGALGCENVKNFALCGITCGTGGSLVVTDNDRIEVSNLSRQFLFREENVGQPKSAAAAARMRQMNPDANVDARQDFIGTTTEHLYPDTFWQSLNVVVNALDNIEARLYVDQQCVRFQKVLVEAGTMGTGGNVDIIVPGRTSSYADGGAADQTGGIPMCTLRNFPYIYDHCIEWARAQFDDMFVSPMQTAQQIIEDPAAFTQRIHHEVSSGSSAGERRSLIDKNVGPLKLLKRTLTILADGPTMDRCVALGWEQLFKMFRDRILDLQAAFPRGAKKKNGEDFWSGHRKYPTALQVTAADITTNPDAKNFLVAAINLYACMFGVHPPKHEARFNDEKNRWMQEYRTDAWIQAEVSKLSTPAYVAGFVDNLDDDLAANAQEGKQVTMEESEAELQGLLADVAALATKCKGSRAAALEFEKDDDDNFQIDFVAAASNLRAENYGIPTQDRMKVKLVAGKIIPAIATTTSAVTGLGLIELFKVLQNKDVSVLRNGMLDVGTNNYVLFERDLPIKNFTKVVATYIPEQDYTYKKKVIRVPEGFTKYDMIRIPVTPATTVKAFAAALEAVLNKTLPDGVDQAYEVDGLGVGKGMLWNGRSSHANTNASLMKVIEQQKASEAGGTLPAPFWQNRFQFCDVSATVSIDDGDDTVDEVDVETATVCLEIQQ
Results with a measured potency or affinity are listed apart.
test_readout: Percent Effect (%)
Your answer should be a plain number; it is taken to be in %.

Reference set (3 entries):
Cc1ccc(NC(=O)NC(C)C(=O)N2CCS(=O)(=O)CC2)cc1 (centres undefined) = 5.41
CN(C)C(=O)COC[C@]12COC[C@H]1CN(CC1CCC1)C2 = 2.7
COCc1cccc(CNCc2c(C)nn(C)c2N(C)C)c1 = 18.9

# get_value(readout='Percent Effect', item= CN(Cc1ccc(Cl)s1)C(=O)NCc1nnc2n1CCC2 )
21.1

# get_value(readout='Percent Effect', item= O=C(c1ccno1)N1CC[C@@H]2O[C@@H](COCCN3CCCC3)CC[C@@H]21 )
10.8

# get_value(readout='Percent Effect', item= CC1CCN(S(=O)(=O)c2cccn(CC(=O)N3CCOCC3)c2=O)CC1 )
9.33

# get_value(readout='Percent Effect', item= Cc1cc(C)c(CNC(=O)N2CCCC2C(N)=O)c(=O)[nH]1 (centres undefined) )
6.33

# get_value(readout='Percent Effect', item= c1coc(-c2noc(CN3CCC(c4ccn[nH]4)CC3)n2)c1 )
5.41

# get_value(readout='Percent Effect', item= CCNC(=O)CN1CCCN(C(=O)C2CCCc3[nH]ncc32)CC1 (centres undefined) )
8.11

# get_value(readout='Percent Effect', item= CC(NC(=O)CCOc1ccccc1Cl)c1nnc2n1CCC2 (centres undefined) )
10.8

# get_value(readout='Percent Effect', item= CC(C)n1ccnc1C1CCN(Cc2ccc(Cl)s2)CC1 )
7.79

# get_value(readout='Percent Effect', item= CSCCNC(=O)c1ccc(OC2CCN(CC(C)(C)C)CC2)c(Cl)c1 )
8.11

# get_value(readout='Percent Effect', item= Cc1ccccc1C(=O)CN1C(=O)c2ccccc2CS1(=O)=O )
-10.8

# get_value(readout='Percent Effect', item= CCc1nc(C2CCCN(C(=O)c3ccc4[nH]nnc4c3)C2)no1 (centres undefined) )
0

# get_value(readout='Percent Effect', item= O=C(c1ccc(O)c(Cl)c1)N1CCC(c2n[nH]c(C3CC3)n2)CC1 )
3.8

# get_value(readout='Percent Effect', item= Cc1cc(C)cc(OCCC(=O)N2CCCC(n3cncn3)C2)c1 (centres undefined) )
-8.11

# get_value(readout='Percent Effect', item= COc1ccc(C(=O)NCCc2nnc3ccccn23)c(OC)c1 )
5.2

# get_value(readout='Percent Effect', item= CC(=O)N1CCCC1C(=O)NCCOc1cc(C)cc(C)c1 (centres undefined) )
7.79

# get_value(readout='Percent Effect', item= O=C(c1cnccn1)N1C[C@@H]2CC[C@H](C1)N(C(=O)Cc1ccsc1)C2 )
2.6

# get_value(readout='Percent Effect', item= CN(C)C(=O)CNC(=O)CCn1ncc2c(Cl)cccc21 )
4

The measured values listed here are drawn from ChEMBL document CHEMBL3988442.
